From: BindingDB's records for doi:10.7270/Q2DV1HGT

# Experimental System: Tyrosine-protein phosphatase non-receptor type 5 (Homo sapiens)
# Sequence (P54829 whole entry): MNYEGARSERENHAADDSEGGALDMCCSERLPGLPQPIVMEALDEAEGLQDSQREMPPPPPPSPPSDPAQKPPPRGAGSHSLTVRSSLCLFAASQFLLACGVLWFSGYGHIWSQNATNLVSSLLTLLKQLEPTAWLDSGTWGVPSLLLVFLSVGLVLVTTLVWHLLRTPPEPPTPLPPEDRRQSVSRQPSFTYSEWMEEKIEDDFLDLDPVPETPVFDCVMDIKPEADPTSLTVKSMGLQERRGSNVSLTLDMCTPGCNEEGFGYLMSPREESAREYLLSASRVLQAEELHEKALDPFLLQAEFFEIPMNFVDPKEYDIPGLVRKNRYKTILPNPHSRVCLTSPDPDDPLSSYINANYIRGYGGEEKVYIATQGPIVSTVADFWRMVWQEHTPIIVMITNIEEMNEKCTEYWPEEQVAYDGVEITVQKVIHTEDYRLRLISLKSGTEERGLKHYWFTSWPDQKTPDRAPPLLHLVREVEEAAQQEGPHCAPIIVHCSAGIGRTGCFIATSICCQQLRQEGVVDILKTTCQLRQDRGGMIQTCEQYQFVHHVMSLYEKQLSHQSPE
# Assay Remarks: PTPN5 enzyme inhibition – biochemical, fluorescence intensity, uHTS hits, confirmation (AID 602372)
Metric Name: log10(IC50) (log10 of the value in µM)
Answers are given as log10 of IC50 in µM.

Worked set:
compound="CSc1ccc(CN=Nc2ccc(S(=O)(=O)Nc3ccccc3C(=O)O)cc2[N+](=O)[O-])cc1 [MLS002245633]" experimental_system="Tyrosine-protein phosphatase non-receptor type 5 (Homo sapiens)" readout_value=0.61
compound="O=C(N/N=C/C1C=CC=CC1=O)c1cccc([N+](=O)[O-])c1 (stereo not given) [MLS002667988]" experimental_system="Tyrosine-protein phosphatase non-receptor type 5 (Homo sapiens)" readout_value=0.95
compound="S=C1N=C2C(=C3SCCS3)CCCC2C(c2ccccc2)N1 (stereo not given) [MLS000516376]" experimental_system="Tyrosine-protein phosphatase non-receptor type 5 (Homo sapiens)" readout_value=1.35
compound=COc1ccc(CN=Nc2nc(O)c(CC(=O)O)s2)cc1OCc1ccc(Cl)cc1Cl experimental_system="Tyrosine-protein phosphatase non-receptor type 5 (Homo sapiens)" readout_value=0.99
compound="S=C1N=C(C23CC4CC(CC(C4)C2)C3)CC(c2ccc3c(c2)OCO3)N1 (stereo not given)" experimental_system="Tyrosine-protein phosphatase non-receptor type 5 (Homo sapiens)" readout_value=1.75
compound="COc1ccc(OC)c(-n2c(O)c3o[nH]c(-c4ccccc4Cl)c-3c2=O)c1 [SMR000046218]" experimental_system="Tyrosine-protein phosphatase non-receptor type 5 (Homo sapiens)" readout_value=1.39

Each of the following entries comes with a recorded value; kindly state log10(IC50) for each.
1. CCOc1cc(CN=Nc2nc(O)c(CC(=O)O)s2)ccc1OCc1ccc(Cl)cc1Cl
2. O=C1C(=O)N(CCCO)C(c2ccc(Br)cc2)C1C(=O)c1ccc(Br)cc1 (stereo not given)

[0.61, 1.56]
